species on record: Rattus norvegicus; experiment: Open TG-GATES - Regimen: Daily Repeat; format: toxicity, organism-based, Sprague-Dawley; set-up: regimen Daily Repeat, gender Male, age 6 weeks; details: in vivo, po, 0 mg/kg, […], tissue Plasma, route gavage, dose level Control, time 7 day
Output TRUE for TBIL not less than 0.02 mg/dL; output FALSE otherwise.

Record excerpt, results attached:
> print(dat)
                                   compound  label
1                         CN(C)C(=N)N=C(N)N   TRUE
2  CC(C)N(CCC(C(N)=O)(c1ccccc1)c1ccccn1)C(C)C (stereo unspecified) [DISOPYRAMIDE]  FALSE
3  OCCOCCN1CCN(C(c2ccccc2)c2ccc(Cl)cc2)CC1 (stereo unspecified) [HYDROXYZINE]   TRUE
4            CCC1(c2ccccc2)C(=O)NC(=O)NC1=O   TRUE
5  CN(C)CCC=C1c2ccccc2COc2ccccc21 [DOXEPIN]   TRUE

API: above_or_equal(metric=TBIL, cutoff=0.02 mg/dL) for item CC1=C(CC(=O)O)c2cc(F)ccc2/C1=C\c1ccc([S+](C)[O-])cc1 (stereo unspecified)
FALSE

----------
Recorded LIVER values for a group of molecules are listed next.
organism: Rattus norvegicus; test: Open TG-GATES - Regimen: Single; assay type: toxicity, organism-based, Sprague-Dawley; parameters: regimen Single, gender Male, age 6 weeks; settings: in vivo, po, 0 mg/kg, 24 h, tissue Liver, route gavage, dose level Control
Field: numeric (g). Do not append units.

> print(dat)
                               molecule  reported.measurement
1  ClC(Cl)(Cl)Cl [CARBON TETRACHLORIDE]                  10.6

Fill in the blank: the reported LIVER of CN(C)C(=N)N=C(N)N [METFORMIN] is ____.
10

Next up: OCCOCCN1CCN(C(c2ccccc2)c2ccc(Cl)cc2)CC1 (stereo not given) [HYDROXYZINE]
9.3

Next up: CC[C@H]1[C@@H]2C[C@H]3[C@@H]4N(C)c5ccccc5[C@]45C[C@@H]([C@@H]2[C@H]5O)N3[C@@H]1O [AJMALINE]
10.2

Next up: CCc1oc2ccccc2c1C(=O)c1cc(Br)c(O)c(Br)c1 [BENZBROMARONE]
10.9

Next up: CCC1(c2ccccc2)C(=O)NC(=O)NC1=O [PHENOBARBITAL]
11.3

Next up: CC(C)N(CCC(C(N)=O)(c1ccccc1)c1ccccn1)C(C)C (stereo not given) [DISOPYRAMIDE]
10.6

----------
species on record: Rattus norvegicus; test: Open TG-GATES - Regimen: Daily Repeat; type: toxicity, organism-based, Sprague-Dawley; design: regimen Daily Repeat, gender Male, age 6 weeks; conditions: in vivo, po, 0 mg/kg, […], tissue Plasma, route gavage, dose level Control, time 14 day
measure.name: TG
# do not omit the unit; it follows the number

> print(dat)
                                   compound  reported.measurement
1  CC[C@H]1[C@@H]2C[C@H]3[C@@H]4N(C)c5ccccc5[C@]45C[C@@H]([C@@H]2[C@H]5O)N3[C@@H]1O             126 mg/dL
2  CC1=C(CC(=O)O)c2cc(F)ccc2/C1=C\c1ccc([S+](C)[O-])cc1 (stereo unspecified)           175.4 mg/dL
3      ClC(Cl)(Cl)Cl [CARBON TETRACHLORIDE]            73.4 mg/dL
4  CN(C)CCC=C1c2ccccc2COc2ccccc21 [DOXEPIN]           172.8 mg/dL
5  OCCOCCN1CCN(C(c2ccccc2)c2ccc(Cl)cc2)CC1 (stereo unspecified) [HYDROXYZINE]           126.4 mg/dL

Fill in the blank: the reported TG of CCc1oc2ccccc2c1C(=O)c1cc(Br)c(O)c(Br)c1 is ____.
139.8 mg/dL

Next up: CCC1(c2ccccc2)C(=O)NC(=O)NC1=O
138.6 mg/dL

Next up: CCCCc1oc2ccccc2c1C(=O)c1cc(I)c(OCCN(CC)CC)c(I)c1
117 mg/dL

Next up: CC(C)N(CCC(C(N)=O)(c1ccccc1)c1ccccn1)C(C)C (stereo unspecified) [DISOPYRAMIDE]
138.2 mg/dL

Next up: CN(C)C(=N)N=C(N)N
139.2 mg/dL

Next up: O=NN(CCCl)C(=O)NC1CCCCC1
118.6 mg/dL

----------
organism: Rattus norvegicus; test: Open TG-GATES - Regimen: Daily Repeat; assay type: toxicity, organism-based, Sprague-Dawley; parameters: regimen Daily Repeat, gender Male, age 6 weeks; conditions: in vivo, po, 0 mg/kg, […], tissue Kidney, route gavage, dose level Control, time 28 day
measure.name: KIDNEY_L (g)
Field: numeric (g). Do not append units.

Known results for compounds:
> print(dat)
                                   compound  reported.measurement
1                  O=NN(CCCl)C(=O)NC1CCCCC1                   1.4
2  CCCCc1oc2ccccc2c1C(=O)c1cc(I)c(OCCN(CC)CC)c(I)c1                   1.4
3            CCC1(c2ccccc2)C(=O)NC(=O)NC1=O                   1.4
4  CC(C)N(CCC(C(N)=O)(c1ccccc1)c1ccccn1)C(C)C (stereo unspecified) [DISOPYRAMIDE]                   1.6
5  CC[C@H]1[C@@H]2C[C@H]3[C@@H]4N(C)c5ccccc5[C@]45C[C@@H]([C@@H]2[C@H]5O)N3[C@@H]1O                   1.4

Fill in the blank: the reported KIDNEY_L of CN(C)CCC=C1c2ccccc2COc2ccccc21 [DOXEPIN] is ____.
1.4

Next up: CN(C)C(=N)N=C(N)N
1.4

Next up: CC1=C(CC(=O)O)c2cc(F)ccc2/C1=C\c1ccc([S+](C)[O-])cc1 (stereo unspecified)
1.3

Next up: OCCOCCN1CCN(C(c2ccccc2)c2ccc(Cl)cc2)CC1 (stereo unspecified) [HYDROXYZINE]
1.4

Next up: ClC(Cl)(Cl)Cl [CARBON TETRACHLORIDE]
1.3

Next up: CCc1oc2ccccc2c1C(=O)c1cc(Br)c(O)c(Br)c1
1.4

----------
species: Rattus norvegicus; experiment: Open TG-GATES - Regimen: Single; assay type: toxicity, organism-based, Sprague-Dawley; set-up: regimen Single, gender Male, age 6 weeks; conditions: in vivo, po, 0 mg/kg, 6 h, tissue Blood, route gavage, dose level Control
measure.name: MCHC (%)
Field: numeric (%). Do not append units.

Known results for compounds:
> print(dat)
                                   compound  units.symbol  reported.measurement
1  CC(C)N(CCC(C(N)=O)(c1ccccc1)c1ccccn1)C(C)C (centres undefined) [DISOPYRAMIDE]             %                    32
2                  O=NN(CCCl)C(=O)NC1CCCCC1             %                  32.9
3  CC1=C(CC(=O)O)c2cc(F)ccc2/C1=C\c1ccc([S+](C)[O-])cc1 (centres undefined)             %                  32.8
4   CCc1oc2ccccc2c1C(=O)c1cc(Br)c(O)c(Br)c1             %                  33.6

Fill in the blank: the reported MCHC of CCC1(c2ccccc2)C(=O)NC(=O)NC1=O is ____.
35.9

Next up: CC[C@H]1[C@@H]2C[C@H]3[C@@H]4N(C)c5ccccc5[C@]45C[C@@H]([C@@H]2[C@H]5O)N3[C@@H]1O
32.8

Next up: ClC(Cl)(Cl)Cl [CARBON TETRACHLORIDE]
34.6

Next up: CN(C)CCC=C1c2ccccc2COc2ccccc21 [DOXEPIN]
32.8

Next up: OCCOCCN1CCN(C(c2ccccc2)c2ccc(Cl)cc2)CC1 (centres undefined) [HYDROXYZINE]
32.1

----------
species on record: Rattus norvegicus; experiment: Open TG-GATES - Regimen: Single; assay type: toxicity, organism-based, Sprague-Dawley; design: regimen Single, gender Male, age 6 weeks; details: in vivo, po, 0 mg/kg, 3 h, tissue Plasma, route gavage, dose level Control
measure.name: K (meq/L)
Field: numeric (meq/L). Do not append units.

Known results for compounds:
> print(dat)
                                   compound  reported.measurement
1             CN(C)C(=N)N=C(N)N [METFORMIN]                   4.2
2  OCCOCCN1CCN(C(c2ccccc2)c2ccc(Cl)cc2)CC1 (centres undefined) [HYDROXYZINE]                   4.2
3  CCc1oc2ccccc2c1C(=O)c1cc(Br)c(O)c(Br)c1 [BENZBROMARONE]                   4.8
4  CN(C)CCC=C1c2ccccc2COc2ccccc21 [DOXEPIN]                   4.2
5  CC[C@H]1[C@@H]2C[C@H]3[C@@H]4N(C)c5ccccc5[C@]45C[C@@H]([C@@H]2[C@H]5O)N3[C@@H]1O [AJMALINE]                   4.4

Fill in the blank: the reported K of O=NN(CCCl)C(=O)NC1CCCCC1 [LOMUSTINE] is ____.
5

Next up: CC1=C(CC(=O)O)c2cc(F)ccc2/C1=C\c1ccc([S+](C)[O-])cc1 (centres undefined)
3.9

Next up: CCC1(c2ccccc2)C(=O)NC(=O)NC1=O [PHENOBARBITAL]
4.2

Next up: ClC(Cl)(Cl)Cl [CARBON TETRACHLORIDE]
3.9
